Experiment: Cytotoxicity against human MCF7/6 cells assessed as reduction of mitochondrial activity after 6 days by MTT assay
Assay type: cell-based
Settings: MCF7/6, 144 h
measure-name: EC50 (nM)
Could you give me the number in nM? Just the number is fine.

Give its EC50 value. Item: COc1cccc(OC)c1C(=O)/C=C/c1ccco1
1000

====

Give inhibition at 10 µM for every item shown.
Biological target: CYP1A2 (Homo sapiens, UniProt P05177)
Sequence (P05177 whole entry): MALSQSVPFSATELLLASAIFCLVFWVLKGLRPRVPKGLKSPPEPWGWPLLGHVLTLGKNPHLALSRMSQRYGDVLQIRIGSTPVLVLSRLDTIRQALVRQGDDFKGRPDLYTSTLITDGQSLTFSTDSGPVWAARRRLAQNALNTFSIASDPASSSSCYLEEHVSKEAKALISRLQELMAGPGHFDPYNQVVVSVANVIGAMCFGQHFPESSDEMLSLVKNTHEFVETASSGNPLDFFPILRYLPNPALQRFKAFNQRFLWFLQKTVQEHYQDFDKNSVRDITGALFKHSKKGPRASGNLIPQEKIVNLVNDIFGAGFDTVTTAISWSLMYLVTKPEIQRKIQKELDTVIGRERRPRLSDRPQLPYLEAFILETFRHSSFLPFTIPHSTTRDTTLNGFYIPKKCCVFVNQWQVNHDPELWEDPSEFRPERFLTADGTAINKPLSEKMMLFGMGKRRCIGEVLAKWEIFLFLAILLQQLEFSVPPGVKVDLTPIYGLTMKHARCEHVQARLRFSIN
Assay: Inhibition of CYP1A2 (unknown origin) at 10 umol/L
Type: ADME
Could you give me the number in %? Just the number is fine.

Give its inhibition at 10 µM value. Item: COc1cccc(OC)c1C(=O)/C=C/c1ccco1
9.5

Same lookup for COc1cc(C(=O)/C=C/c2ccc(F)cc2)cc(OC)c1OC , please.
35.7

====

Give half-life at 1 µM for every item shown.
Experiment: Half life in human blood at 1 umol/L
Assay type: ADME, tissue-based
Could you give me the number in min? Just the number is fine.

Give its half-life at 1 µM value. Item: COc1cccc(OC)c1C(=O)/C=C/c1ccco1
22

Same lookup for COc1cc(C(=O)/C=C/c2ccc(F)cc2)cc(OC)c1OC , please.
10

====

Give half-life at 1 µM for every item shown.
Assay: Half life of the compound in simulated gastric fluid at 1 umol/L
Format: ADME

Give its half-life at 1 µM value. Item: COc1cccc(OC)c1C(=O)/C=C/c1ccco1
> 60 min

Same lookup for COc1cc(C(=O)/C=C/c2ccc(F)cc2)cc(OC)c1OC , please.
> 60 min

====

Experiment: Protein binding in human plasma assessed as recovery at 10 umol/L
Format: ADME, cell-free
Conditions: read-out: Drug recovery
Give recovery at 10 µM for every item shown.
Entry format: amount then unit.

Give its recovery at 10 µM value. Item: COc1cccc(OC)c1C(=O)/C=C/c1ccco1
100%

Same lookup for COc1cc(C(=O)/C=C/c2ccc(F)cc2)cc(OC)c1OC , please.
90%

====

Test: Permeability across basolateral to apical side of human Caco2 cells assessed as compound recovery at 10 umol/L at pH 7.4
Format: ADME, cell-based
Conditions: Caco-2, pH 7.4, read-out: Drug recovery
measure-name: recovery at 10 µM (%)
Could you give me the number in %? Just the number is fine.

Give its recovery at 10 µM value. Item: COc1cccc(OC)c1C(=O)/C=C/c1ccco1
89

Same lookup for COc1cc(C(=O)/C=C/c2ccc(F)cc2)cc(OC)c1OC , please.
66
